Please respond with reported growth for every item in the list.
# Tested on: A498 renal
# Assay Overview: NCI-60 one-dose screen, 48 h (100 = growth as untreated, 0 = no growth, -100 = all killed)
# Experimental Setup: 10 µM unless noted
The panel holds about 83,000 compounds, 20% with a hit somewhere; the sample as a whole holds those more often. Calls of active or inactive are those of the source. Rule for the calls: active = growth percent below 10; inactive = the rest.

Please supply growth for each of the following items, keeping them in order.
1. CC(C)NC(=O)OCc1c(COC(=O)NC(C)C)c(-c2ccc(Cl)cc2)n2c1CCC2
2. Cc1cc(Cc2ccccc2)c(O)c(Cc2ccccc2)c1
3. CCCCNc1ccc(-c2ccc(NCCCC)cc2)cc1

1. 44.5% (inactive)
2. 98.6% (inactive)
3. 59.7% (inactive)

Please supply growth for each of the following items, keeping them in order.
1. COc1ccc(C)cc1NC(=O)SC(C)C
2. c1ccc2[nH]c(Cc3nc4ccccc4[nH]3)nc2c1
3. C=CCc1cc(OC)c(OC)c(OC)c1

["92.3% [100 µM] (inactive)", "98.5% (inactive)", "100% (inactive)"]

----------
# System: SN12C renal
# Assay Overview: NCI-60 one-dose screen, 48 h
# Experimental Setup: 10 µM unless noted
The panel holds about 83,000 compounds, 20% with a hit somewhere; the sample as a whole holds those more often. Calls of active or inactive are those of the source. Rule for the calls: active = growth percent below 10; inactive = the rest.
Use one of these outcomes when replying: y for active, n for inactive

// return assay outcome for CC1(C)OC2C(CO)OC(n3ccc(=O)[nH]c3=O)C2O1 (stereo not drawn)
n

// return assay outcome for N#Cc1ccc(OC(=O)Nc2cc(Cl)cc(Cl)c2)cc1
y

// return assay outcome for C=C(C)COc1ccc(C(C)(C)C)cc1
n

// return assay outcome for CC1(C)OC(=O)CC1=O
n

// return assay outcome for CC(C)c1ncc([N+](=O)[O-])n1C
n

More entries:
// return assay outcome for O=c1cc(C(F)(F)F)[nH]c(=S)[nH]1
n

// return assay outcome for Cc1ccc(S(=O)(=O)Oc2ccc3sc4c(CO)ccc(NCCN(C)C)c4c(=O)c3c2)cc1
y

// return assay outcome for O=C(O)CC1=CCCCC1
n

// return assay outcome for ClCc1cccc2c(CCl)cccc12
n

// return assay outcome for O=C(c1ccccc1)c1ccc(-c2ccc(O)cc2)cc1
n

// return assay outcome for CCN(CC)CCCC(C)NC(=S)N/N=C(\C)c1ccccn1 (stereo not drawn)
n

// return assay outcome for CC1CC(C)S(=O)(=O)C1 (stereo not drawn)
n

// return assay outcome for CN(C)Cc1ccccn1
n

----------
# System: PC-3 prostate
# Assay Overview: NCI-60 one-dose screen, 48 h (100 = growth as untreated, 0 = no growth, -100 = all killed)
# Experimental Setup: 10 µM unless noted
# Experimental: Growth inhibition of the PC-3 human tumor cell line is measured as a screen for anti-cancer activity. Cells are grown in 96 well plates and exposed to the test compound for 48 hours. Compounds are tested at a single concentration, which is 10^-5 M for most compounds. The reported endpoint is percent growth (GI% or GIPRCNT), where numbers from 0 - 100% represent growth inhibition, and numbers from -100% - 0 represent cell death. For example, a value of 40 represents 60% growth inhibition. […]
About 83,000 compounds went through this panel and 20% of them were active in at least one assay; those are over-represented in the sample as a whole.
Property Name: growth (%)
One number for each entry, in %.

I have this compound here, Nc1cc(N)ncn1 , and I need its recorded growth.
97.7

I have this compound here, NC(=O)NCCO , and I need its recorded growth.
94.5

I have this compound here, CCCCOC(=O)c1ccccc1O , and I need its recorded growth.
101

I have this compound here, CC(=O)/C(C)=N\OC(=O)Nc1ccccc1 , and I need its recorded growth.
97.5

I have this compound here, CC(=O)NC(CCC(=O)c1ccccc1)C(=O)O (stereo not given) , and I need its recorded growth.
80.2

Please supply growth for each of the following items, keeping them in order.
1. COc1ccc2c(c1)Nc1ccccc1S2
2. CCOC(=O)c1ccc(Nc2sc(C(=O)c3ccc(Br)cc3)c(N)c2C#N)cc1
3. O=C(c1ccccc1)c1ccc(-c2ccc(O)cc2)cc1
4. C=COC(=O)CCOCC(CC)CCCC (stereo not given)
5. OCC1CCC(O)C(CO)N1 (stereo not given)

[97.9, 17.5, 76.8, 98.2, 95]

Please supply growth for each of the following items, keeping them in order.
1. CC1(c2ccccc2)CO1 (stereo not given)
2. CCOC(=O)c1cc(C)[nH]c(=O)c1C#N
3. Cc1ccc(O)c(N)c1
4. CC(=O)CSc1ncnc2nc[nH]c12
5. OC(CCN1CCCCC1)(c1ccccc1)c1ccccc1
6. Cc1cc(=O)n(Nc2ccccc2)c(O)c1C#N

1: 104; 2: 80.7; 3: 94.7; 4: 92.5; 5: 96; 6: 99.4

Please supply growth for each of the following items, keeping them in order.
1. C=CCC(OC(C)=O)c1ccc(OC)c(OC)c1 (stereo not given)
2. Cc1ccnc(Nc2nc3ccccc3[nH]2)n1
3. CC(=O)c1cccc(NS(=O)(=O)c2ccc(C)cc2)c1
4. Cc1ccc(S(N)(=O)=O)cc1Cl

92.5
101
78.9
99.3

----------
Please respond with reported growth for every item in the list.
# Tested on: K-562 leukemia
# Assay Overview: NCI-60 one-dose screen, 48 h (100 = growth as untreated, 0 = no growth, -100 = all killed)
# Experimental Setup: 10 µM unless noted
This is part of a sample that, as a whole, favours compounds with a hit. Of some 83,000 tested, about 20% had one in any assay. Active and inactive are the calls of the source. Rule for the calls: active = growth percent below 10; inactive = the rest.

I have this compound here, COc1c(CNC(=O)CCl)cc2[nH]c(C)cc2c1CNC(=O)CCl , and I need its recorded growth.
63.5% (inactive)

I have this compound here, C=C(OC(C)=O)c1ccccc1 , and I need its recorded growth.
83% (inactive)

Please supply growth for each of the following items, keeping them in order.
1. Cn1c(=O)c2[nH]c(CC(=O)O)nc2n(C)c1=O
2. CC(=O)c1cccc(NS(=O)(=O)c2ccc(C)cc2)c1
3. COc1cc(-c2ccc(NC(=O)CC(C)=O)c(OC)c2)ccc1NC(=O)CC(C)=O
4. CC(c1ccccc1)N1C(=O)CSC1=S (stereo not drawn)
5. C=C(C)COc1ccc(C(C)(C)C)cc1
6. Cc1[nH]nc(C(N)=O)c1[N+](=O)[O-]

["105% (inactive)", "27.4% (inactive)", "98% (inactive)", "5.61% (active)", "106% (inactive)", "126% (inactive)"]

Please supply growth for each of the following items, keeping them in order.
1. Nc1c(Br)cc(O)c2c1C(=O)c1ccccc1C2=O
2. NNC(=O)CCCCl
3. CC(C)(C)NCCC(O)c1cc(C(F)(F)F)nc2c(C(F)(F)F)cccc12 (stereo not drawn)
4. Oc1cc(O)c2c(c1)O[C@H](c1ccc(O)c(O)c1)[C@@H](O)C2
5. CC1(C)OC(=O)CC1=O
6. CN(C)c1ccc(/C=C/C(=O)c2ccc(NC(N)=O)cc2)cc1
7. Nc1nc(N)nc(N2CCCCC2)n1
8. NNc1ncnc2nc[nH]c12

1. 66.3% (inactive)
2. 105% (inactive)
3. 64.5% (inactive)
4. 104% (inactive)
5. 92.2% (inactive)
6. 64.6% (inactive)
7. 105% (inactive)
8. 48.4% (inactive)

Please supply growth for each of the following items, keeping them in order.
1. CCCC1OC(c2ccco2)OCC1CC (stereo not drawn)
2. CCCC(=O)CC(=O)c1ccccc1
3. O=C1C=C[C@H](O)[C@@]2(CO)O[C@@H]12
4. ClCC(Cl)[C@@H]1CC2C=CC1C2 (stereo partly drawn)
5. C1CCc2onc(-c3noc4c3CCCCC4)c2CC1
6. CC1CC(C)S(=O)(=O)C1 (stereo not drawn)
7. CC(O)C(F)(F)C(F)(F)C(F)(F)F (stereo not drawn)

105% (inactive)
112% (inactive)
4.07% (active)
105% (inactive)
103% (inactive)
92.4% (inactive)
111% (inactive)

Please supply growth for each of the following items, keeping them in order.
1. CC(C)(C)[Si](C)(C)OCC1OC(n2cnc3c(N)ncnc32)CC1OS(C)(=O)=O (stereo not drawn)
2. CCCCCC(=O)OCCC1CCCCC1
3. OCc1cccnc1
4. OCC1OC(n2ccc3c2ncn2ncnc32)C(O)C1O (stereo not drawn)
5. CN(CCCN(C)CCC1CCCCC1)CCC1CCCCC1

1. 105% (inactive)
2. 107% (inactive)
3. 117% (inactive)
4. 18.4% (inactive)
5. -57.5% (active)

----------
# Tested on: HCT-116 colon
# Assay Overview: NCI-60 one-dose screen, 48 h
# Experimental Setup: 10 µM unless noted
This is part of a sample that, as a whole, favours compounds with a hit. Of some 83,000 tested, about 20% had one in any assay. Activity calls are given as the source filed them. How the source made its calls: active means growth percent below 10; inactive means the rest.
Use one of these outcomes when replying: 1.0 (active), 0.0 (inactive)

// return assay outcome for Oc1cccc(CNC2CCCCC2)c1
0.0

// return assay outcome for CC1CCC(C)(C)c2ccccc21 (stereo not given)
0.0

// return assay outcome for NC(CCl)=NCC12CC3CC(CC(C3)C1)C2
1.0

// return assay outcome for Cc1ccc(S(=O)(=O)Oc2ccc3sc4c(CO)ccc(NCCN(C)C)c4c(=O)c3c2)cc1
1.0

// return assay outcome for CC(=O)/C(C)=N\OC(=O)Nc1ccccc1
0.0

More entries:
// return assay outcome for COc1ccc(C(=O)/C(=N/Nc2ccccc2)c2ccc(OC)cc2)cc1
0.0

// return assay outcome for NC(CSSCC(N)C(=O)O)C(=O)O (stereo not given)
0.0

// return assay outcome for O=C(O)Cc1ccccn1
0.0

// return assay outcome for COc1ccc(Nc2cc(Cl)ccc2C(=O)O)cn1
0.0

// return assay outcome for C1Cc2onc(-c3noc4c3CCC4)c2C1
0.0

// return assay outcome for CCOC(=O)c1c(C)[nH]c(C)c1C=O
0.0
